Observed log10(EC50), system OC43 Mpro (Human coronavirus OC43 (HCoV-OC43)).
Transform log10 | Measure EC50 | Unit nM

[[record]]
molecule = "CN1CCN(C(=O)c2cc(Cl)cc(C(F)(F)F)c2N2CC[C@@H](NC(=O)c3cc(=O)[nH]c4c(F)cccc34)C2)CC1 [Compound 37]"
recorded_measurement = 0.00

[[record]]
molecule = "Cc1cc(C(=O)N[C@@H]2CCN(c3c(C(=O)N4CCOCC4)cc(C#N)cc3C(F)(F)F)C2)c(F)c(=O)[nH]1 [Compound 10]"
recorded_measurement = 1.08


Hi! Can you tell me log10(EC50) for each of these molecules?
1. O=C(N[C@@H]1CCN(c2c(C(=O)N3CC(F)(F)C3)cc(Br)cc2C(F)(F)F)C1)c1cc(=O)[nH]c2c(F)cccc12 [Compound 70]
2. N#Cc1cc(C(=O)N2CCOCC2)c(N2CC[C@@H](NC(=O)c3c(F)c(=O)[nH]c4c(F)cccc34)C2)c(C(F)F)c1 [Compound 39]
3. O=C(N[C@@H]1CCN(c2c(C(=O)N3CCOCC3)cc(Br)cc2C(F)F)C1)c1c(F)c(=O)[nH]c2c(F)cccc12 [Compound 54]
4. C[C@@H]1C[C@@H](NC(=O)c2cc(=O)[nH]c3c(F)cccc23)CN1c1c(C(=O)N2CCOCC2)cc(C#N)cc1C(F)(F)F [Compound 30]
5. Cc1cc(C(=O)N[C@@H]2CCN(c3c(C(=O)N4CCOCC4)cc(C#N)cc3C(F)F)C2)c(F)c(=O)[nH]1 [Compound 12]

Completion:
1. 1.05
2. 0.02
3. -0.38
4. -0.24
5. 1.37

Hi! Can you tell me log10(EC50) for each of these molecules?
1. COc1cccc2[nH]c(=O)cc(C(=O)N[C@@H]3CCN(c4c(C(=O)N5CCOCC5)cc(C)cc4C4CC4)C3)c12 [Compound 81]
2. CN1CCN(C(=O)c2cc(Br)cc(C(F)(F)F)c2N2CC[C@@H](NC(=O)c3cc(=O)[nH]c4c(F)cccc34)C2)CC1 [Compound 63]
3. N#Cc1cc(C(=O)N2CCOCC2)c(N2CC[C@@H](NC(=O)c3cc(=O)[nH]c4c(F)c(F)ccc34)C2)c(C(F)(F)F)c1 [Compound 8]
4. O=C(N[C@@H]1CCN(c2c(C(=O)N3CCC(F)(F)C3)cc(Br)cc2C(F)(F)F)C1)c1cc(=O)[nH]c2c(F)cccc12 [Compound 69]
5. N#Cc1cc(C(=O)N2CCOCC2)c(N2CC[C@@H](NC(=O)c3c(F)c(=O)[nH]c4c(F)cccc34)C2)c(C(F)(F)F)c1 [Compound 5]

Completion:
1: -0.18; 2: -0.04; 3: 0.67; 4: 0.69; 5: 0.10

Hi! Can you tell me log10(EC50) for each of these molecules?
1. Cc1cc(C(=O)N2CCOCC2)c(N2C[C@H](NC(=O)c3cc(=O)[nH]c4c(F)c(F)ccc34)CC2=O)c(C2CC2)c1 [Compound 75]
2. O=C(N[C@@H]1CCN(c2c(C(=O)N3CCOCC3)cc(F)cc2C2CC2)C1)c1cc(=O)[nH]c2c(F)cccc12 [Compound 46]
3. O=C(N[C@@H]1CCN(c2c(C(=O)N3CC4COCC4C3)cc(Br)cc2C(F)(F)F)C1)c1cc(=O)[nH]c2c(F)cccc12 (some centres unmarked) [Compound 66]

Completion:
1. 0.35
2. -0.09
3. 0.31

* * *

molecular target: 229E Mpro (Human coronavirus 229E (HCoV-229E), UniProt P0C6X1)
Sequence (P0C6X1 2966-3267 limits assumed): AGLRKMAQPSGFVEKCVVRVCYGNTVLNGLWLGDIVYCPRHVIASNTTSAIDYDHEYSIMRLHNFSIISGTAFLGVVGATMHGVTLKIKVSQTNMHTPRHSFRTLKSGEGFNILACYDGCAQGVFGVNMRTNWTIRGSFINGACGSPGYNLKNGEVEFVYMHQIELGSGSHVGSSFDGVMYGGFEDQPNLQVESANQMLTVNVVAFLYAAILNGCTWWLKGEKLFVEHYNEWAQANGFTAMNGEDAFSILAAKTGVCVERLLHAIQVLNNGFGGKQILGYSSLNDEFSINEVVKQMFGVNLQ
Exercise: for every item that follows, state its recorded pEC50.
One number for each entry, as −log10 of the molar value.

Answered examples (6):
[[record]]
compound = "COc1cccc2[nH]c(=O)cc(C(=O)N[C@@H]3CCN(c4c(C(=O)N5CCOCC5)cc(C#N)cc4C(F)(F)F)C3)c12"
test_system = "229E Mpro (Human coronavirus 229E (HCoV-229E), UniProt P0C6X1)"
property = "pEC50"
recorded_measurement = 8.70

[[record]]
compound = "Cc1cc(C(=O)N[C@@H]2CCN(c3c(C(=O)N4CCOCC4)cc(Br)cc3C(F)(F)F)C2)c(F)c(=O)[nH]1"
test_system = "229E Mpro (Human coronavirus 229E (HCoV-229E), UniProt P0C6X1)"
property = "pEC50"
recorded_measurement = 7.89

[[record]]
compound = "N#Cc1cc(C(=O)N2CCOCC2)c(N2CC[C@@H](NC(=O)c3c(F)c(=O)[nH]c4c(F)cccc34)C2)c(C(F)F)c1"
test_system = "229E Mpro (Human coronavirus 229E (HCoV-229E), UniProt P0C6X1)"
property = "pEC50"
recorded_measurement = 8.46

[[record]]
compound = "N#Cc1cc(C(=O)N2CCOCC2)c(N2CC[C@@H](NC(=O)c3cc(=O)[nH]c4c(F)cc(F)cc34)C2)c(C(F)(F)F)c1"
test_system = "229E Mpro (Human coronavirus 229E (HCoV-229E), UniProt P0C6X1)"
property = "pEC50"
recorded_measurement = 8.56

[[record]]
compound = "N#Cc1cc(C(=O)N2CCOCC2)c(N2CC[C@@H](NC(=O)c3c(F)c(=O)[nH]c4c(F)cccc34)C2)c(C(F)(F)F)c1"
test_system = "229E Mpro (Human coronavirus 229E (HCoV-229E), UniProt P0C6X1)"
property = "pEC50"
recorded_measurement = 8.84

[[record]]
compound = "O=C(N[C@@H]1CCN(c2c(C(=O)N3CCN4CCOCC4C3)cc(Br)cc2C(F)(F)F)C1)c1cc(=O)[nH]c2c(F)cccc12 (some centres unmarked)"
test_system = "229E Mpro (Human coronavirus 229E (HCoV-229E), UniProt P0C6X1)"
property = "pEC50"
recorded_measurement = 8.42


Hi! Can you tell me pEC50 for each of these compounds?
1. Cc1cc(C(=O)N2CCOCC2)c(N2CC[C@@H](NC(=O)c3cc(C)[nH]c(=O)c3F)C2)c(C2CC2)c1
2. COc1cccc2[nH]c(=O)cc(C(=O)N[C@@H]3CCN(c4c(C(=O)N5CCOCC5)cc(Cl)nc4C4CC4)C3)c12

Completion:
1. 8.29
2. 7.87

Hi! Can you tell me pEC50 for each of these compounds?
1. CN1CCN(C(=O)c2cc(C#N)cc(C(F)(F)F)c2N2CC[C@@H](NC(=O)c3cc(=O)[nH]c4c(F)cccc34)C2)CC1
2. COc1cc(F)cc2[nH]c(=O)cc(C(=O)N[C@@H]3CCN(c4c(C(=O)N5CCOCC5)cc(Br)cc4C(F)(F)F)C3)c12
3. Cc1cc(C(=O)N[C@@H]2CCN(c3c(C(=O)N4CCOCC4)cc(C#N)cc3C(F)(F)F)C2)c(F)c(=O)[nH]1
4. O=C(N[C@@H]1CCN(c2c(C(=O)N3CCOCC3)cc(Br)cc2C(F)(F)F)C1)c1cc(C(F)F)[nH]c(=O)c1
5. N#Cc1cc(C(=O)N2CCOCC2)c(N2CC[C@@H](NC(=O)c3cc(=O)[nH]c4c(F)cccc34)C2)c(C2CC2)c1
6. O=C(N[C@@H]1CCN(c2c(C(=O)N3CCOCC3)cc(F)cc2C(F)(F)F)C1)c1cc(=O)[nH]c2c(F)cc(F)cc12

Completion:
1: 8.68; 2: 9.06; 3: 8.12; 4: 6.44; 5: 8.61; 6: 8.23

Hi! Can you tell me pEC50 for each of these compounds?
1. C[C@@H]1C[C@@H](NC(=O)c2cc(=O)[nH]c3c(F)cccc23)CN1c1c(C(=O)N2CCOCC2)cc(C#N)cc1C(F)(F)F
2. O=C(N[C@@H]1CCN(c2c(C(=O)N3CCOCC3)cc(Br)cc2C(F)F)C1)c1c(F)c(=O)[nH]c2c(F)cccc12
3. O=C(N[C@@H]1CCN(c2c(C(=O)N3CC4CC(C3)O4)cc(Br)cc2C(F)(F)F)C1)c1cc(=O)[nH]c2c(F)cccc12
4. Cc1cc(C(=O)N[C@@H]2CCN(c3c(C(=O)N4CCOCC4)cc(C#N)cc3C(F)F)C2)c(F)c(=O)[nH]1
5. N#Cc1cc(C(=O)N2CCOCC2)c(N2CC[C@@H](NC(=O)c3cc(=O)[nH]c4c(F)c(F)ccc34)C2)c(C(F)(F)F)c1

Completion:
8.90
8.33
8.56
7.04
8.48

* * *

test: in vitro; settings: PAMPA
Consider the cut-off 10 ×10⁻⁶ cm/s. If the recorded Papp is strictly smaller, the label is TRUE; if not, the label is FALSE.

Check out these entries, answers already filled in.
[[record]]
molecule = "N#Cc1cc(C(=O)N2CCCC2)c(N2CC[C@@H](NC(=O)c3cc(=O)[nH]c4c(F)cccc34)C2)c(C(F)(F)F)c1 [Compound 20]"
group_label = "FALSE"

[[record]]
molecule = "O=C(N[C@@H]1CC(=O)N(c2c(C(=O)N3CCOCC3)cc(Br)cc2C(F)(F)F)C1)c1c(F)c(=O)[nH]c2c(F)c(F)ccc12 [Compound 77]"
group_label = "TRUE"

[[record]]
molecule = "C[C@@H]1C[C@@H](NC(=O)c2cc(=O)[nH]c3c(F)cccc23)CN1c1c(C(=O)N2CCOCC2)cc(C#N)cc1C(F)(F)F [Compound 30]"
group_label = "FALSE"

[[record]]
molecule = "COc1cc(F)cc2[nH]c(=O)cc(C(=O)N[C@@H]3CCN(c4c(C(=O)N5CCOCC5)cc(Br)cc4C(F)(F)F)C3)c12 [Compound 57]"
group_label = "TRUE"

[[record]]
molecule = "O=C(N[C@@H]1CCN(c2c(C(=O)N3CCOCC3)cc(Br)cc2C(F)(F)F)C1)c1cc(=O)[nH]c2c(F)cc(F)cc12 [Compound 49]"
group_label = "FALSE"


--- query ---
Prompt: Bench note: check whether N#Cc1cc(C(=O)N2CC3CC(C2)O3)c(N2CC[C@@H](NC(=O)c3cc(=O)[nH]c4c(F)cccc34)C2)c(C(F)(F)F)c1 [Compound 17] shows Papp below 10 ×10⁻⁶ cm/s
Completion: TRUE
